# Measured Target: human TLR7 (Homo sapiens)
# Construct: TLR7 in pUNO vector, blasticidin selection
# Sequence (Q9NYK1 27-1049): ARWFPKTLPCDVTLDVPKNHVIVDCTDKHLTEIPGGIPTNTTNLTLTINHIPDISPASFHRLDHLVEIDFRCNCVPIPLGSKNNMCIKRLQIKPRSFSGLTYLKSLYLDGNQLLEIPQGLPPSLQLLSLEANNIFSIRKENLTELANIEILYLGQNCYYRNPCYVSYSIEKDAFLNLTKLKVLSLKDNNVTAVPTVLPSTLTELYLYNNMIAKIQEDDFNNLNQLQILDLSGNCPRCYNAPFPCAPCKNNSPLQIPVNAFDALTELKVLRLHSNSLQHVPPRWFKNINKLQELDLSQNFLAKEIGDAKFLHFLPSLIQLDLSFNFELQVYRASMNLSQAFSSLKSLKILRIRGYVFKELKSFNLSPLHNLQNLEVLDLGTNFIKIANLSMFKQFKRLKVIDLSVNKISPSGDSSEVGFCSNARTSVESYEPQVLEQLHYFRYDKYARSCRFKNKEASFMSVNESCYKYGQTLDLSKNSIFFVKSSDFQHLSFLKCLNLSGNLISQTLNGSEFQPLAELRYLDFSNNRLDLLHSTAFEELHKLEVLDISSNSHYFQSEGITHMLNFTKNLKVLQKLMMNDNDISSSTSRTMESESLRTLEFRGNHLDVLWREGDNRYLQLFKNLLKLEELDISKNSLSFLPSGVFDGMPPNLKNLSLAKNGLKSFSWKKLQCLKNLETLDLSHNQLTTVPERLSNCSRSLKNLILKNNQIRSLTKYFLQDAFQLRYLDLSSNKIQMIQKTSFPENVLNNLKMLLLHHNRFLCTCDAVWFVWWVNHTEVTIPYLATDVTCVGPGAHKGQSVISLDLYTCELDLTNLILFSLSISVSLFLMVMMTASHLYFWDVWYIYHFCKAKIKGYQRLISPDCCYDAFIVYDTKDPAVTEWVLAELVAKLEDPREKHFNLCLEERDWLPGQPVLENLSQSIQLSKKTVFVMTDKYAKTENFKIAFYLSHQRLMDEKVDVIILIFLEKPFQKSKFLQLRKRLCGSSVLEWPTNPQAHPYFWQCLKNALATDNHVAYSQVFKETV
# Assay Protocol: Human TLR7 assay (SEAP reporter in HEK293 cells)
# Condition Context: SEAP induction in HEK293 cells expressing human TLR7, overnight incubation at 37° C., 0.1% DMSO
Observable: EC50 (µM)

Smi	Measured Target	EC50 [µM]
CCCCc1nc2c(N)nc3ccccc3c2n1CCCN(Cc1cccc(CC(=O)OC)c1)C(=O)CN1CC[C@@H](O)C1	human TLR7 (Homo sapiens)	0.398
COCCc1nc2c(N)nc3ccccc3c2n1CCCN(Cc1ccc(CC(=O)OC)cc1)C(=O)CN(C)C	human TLR7 (Homo sapiens)	0.2
CCCCc1nc2c(N)nc3ccccc3c2n1CCCNCc1ccc(CC(=O)OC)cc1	human TLR7 (Homo sapiens)	0.316
CCCCc1nc2c(N)nc3ccccc3c2n1CCCN(Cc1ccc(CC(=O)OC)cc1)C1CCN(C)CC1	human TLR7 (Homo sapiens)	0.631
CCCCc1nc2c(N)nc3ccccc3c2n1CCCN(Cc1ccc(CC(=O)OC)cc1)C(=O)CN1CCCCC1	human TLR7 (Homo sapiens)	0.0794

[a] CCCCc1nc2c(N)nc3ccccc3c2n1CCCN(Cc1cccc(CC(=O)OC)c1)C(=O)CN1CCC(OC)CC1
[b] COCCc1nc2c(N)nc3ccccc3c2n1CCCN(CCCN1CCOCC1)Cc1ccc(CC(=O)OC)cc1
Lower EC50: a or b ? Return value: the label identifying the chosen record. a
(a: 0.2 µM, b: 0.316 µM)

Reference source for all entries: patent US8436178B2
